test system: SARS-CoV-2
Structures can show the parent of a compound that is named as a salt.
Everything with SI (CC50/IC50) lower than 8 is not satisfied; everything else, including exactly 8, is satisfied.

Task item: Evaluate O=C(c1ccc(OCCN2CCCCC2)cc1)c1c(-c2ccc(O)cc2)sc2cc(O)ccc12 [Raloxifene hydrochloride] : SI (CC50/IC50) at minimum 8?
Reply: not satisfied

Task item: Please give the result for Nc1nc2nn[nH]c2c(=O)[nH]1 too.
Reply: not satisfied

Task item: Please give the result for CCN(CC)c1ccc2cc(-c3nc4ccccc4[nH]3)c(=O)oc2c1 too.
Reply: satisfied

Task item: Please give the result for CCN(CC)Cc1cc(Nc2ccnc3cc(Cl)ccc23)ccc1O too.
Reply: not satisfied
